All values here come from paper PMC10999543.

# System: HeLa cells
# ASSAY DETAILS: Compound screen by flow cytometry: HeLa cell count as surrogate readout of cell viability (z-scoreHeLa); further: test concentration or dose not given here
# Type: cell-based, human
# DETAILS: PKIS compound screen raw data, HeLa cell count, replicate 2
Response field label: string, one of y (cell count rep 2 strictly below 30000) or n.

# MOLECULE, TARGET SYSTEM, CATEGORY
data = [
    ("O=C1Nc2ccc(-c3cccnc3)cc2C1=Cc1cc(Br)c(O)c(Br)c1 [GW429374A]", "HeLa cells", "n"),
    ("NC(=O)c1cccc(Nc2nccc(Nc3ccc(Oc4cccc(Cl)c4)c(Cl)c3)n2)c1 [GW659008A]", "HeLa cells", "n"),
    ("Cc1nn2c(=O)cc(N3CCOCC3)nc2n1Cc1cccc(Cl)c1Cl [GSK2342769A]", "HeLa cells", "y"),
    ("O=C(Nc1n[nH]c2nc(-c3ccccc3)c(Br)cc12)C1CC1 [SB-708998]", "HeLa cells", "y"),
    ("CN(c1ccc(NC(=O)Nc2cccc(Cl)c2)cc1)c1ccnc(N)n1 [GW830707A]", "HeLa cells", "y"),
    ("Cc1ccc(C)c(NC(=O)NCCNc2ccnc(Nc3ccc(F)cc3)n2)c1 [GSK1379878A]", "HeLa cells", "y"),
    ("Fc1cc(Cl)ccc1Nc1ccnc2cc(-c3ccc(CN4CCOCC4)o3)ccc12 [GW560109X]", "HeLa cells", "y"),
    ("COC(=O)c1cccc(NC(=O)NC2CCN(c3ccnc(Nc4ccc(OC)cc4)n3)C2)c1 (centres unmarked) [GSK1379746A]", "HeLa cells", "y"),
    ("c1ccc(-c2cc3ccncc3cc2OC2CCNCC2)cc1 [GSK1122999D]", "HeLa cells", "y"),
    ("Cc1cn2c(=O)cc(N3CCOCC3)nc2n1Cc1cccc(Cl)c1Cl [GSK2334006A]", "HeLa cells", "n"),
    ("COc1cc(Nc2nccc(N3CCC(NC(=O)C(C)c4ccc(Cl)cc4)C3)n2)cc(OC)c1OC (centres unmarked) [GSK1379757A]", "HeLa cells", "y"),
    ("CN1CCN(Cc2ccc(NC(=O)Nc3ccc(N(C)c4ccnc(Nc5ccc(CS(C)(=O)=O)cc5)n4)cc3)cc2)CC1 [GW827654A]", "HeLa cells", "n"),
    ("CS(=O)(=O)CCNCc1cc(-c2cc3c(Nc4ccc(OCc5cccc(F)c5)c(Cl)c4)ncnc3s2)cs1 [GSK300014A]", "HeLa cells", "n"),
    ("CN(c1ccc2c(c1)nc(NCc1ccc(F)cc1)n2C)c1ccnc(Nc2ccc(CS(C)(=O)=O)cc2)n1 [GW813244A]", "HeLa cells", "y"),
    ("OCCCNc1nccc(-c2c(-c3ccc(F)cc3)nn3cc(C(F)(F)F)ccc23)n1 [GW569293E]", "HeLa cells", "n"),
    ("O=C(Nc1ccc(Oc2ccc3nc(NC(=O)c4ccco4)[nH]c3c2)cc1)Nc1cc(C(F)(F)F)ccc1F [GW683134A]", "HeLa cells", "y"),
]

====

# Tested on: HeLa cells
# ASSAY DETAILS: Compound screen by flow cytometry: HeLa cell count as surrogate readout of cell viability (z-scoreHeLa); further: test concentration or dose not given here
# Format: cell-based, human
# DETAILS: PKIS compound screen raw data, HeLa cell count, replicate 3
Response field label: string, one of T (cell count rep 3 strictly below 6000) or F.

# COMPOUND, CATEGORY
measured = [
    ("Cc1c2ccc(N(C)c3ccnc(Nc4cccc(S(N)(=O)=O)c4)n3)cc2nn1Cc1ccccc1 [GW787226A]", "T"),
    ("Cc1cn2c(=O)cc(N3CCOCC3)nc2n1Cc1cccc(Cl)c1Cl [GSK2334006A]", "F"),
    ("O=c1cc(N2CCOCC2)nc2n(Cc3cccc(Cl)c3)ccn12 [GSK2296823A]", "F"),
    ("CC(C)c1nc(-c2ccc(F)c(NS(=O)(=O)c3c(F)cccc3F)c2)c(-c2ccnc(Nc3ccc(N4CCOCC4)nc3)n2)s1 [GSK1804250A]", "F"),
    ("Cc1ccccc1CC(=O)N1CCc2cc(-c3cn(C)c4ncnc(N)c34)ccc21 [GSK2603346A]", "F"),
    ("COc1ccc(Nc2nccc(-c3ccc(NC(=O)c4cc5cc(F)ccc5[nH]4)cc3)n2)cc1 [GSK1229496A]", "T"),
    ("CS(=O)(=O)CCNCc1nc(-c2ccc3ncnc(Nc4ccc(F)c(Cl)c4)c3c2)cs1 [GW461104A]", "T"),
]
